# Tested on: Enterococcus faecalis
# assay_text: Antibacterial activity against vancomycin-resistant Enterococcus faecalis CKU-17 expressing VanB after 24 hrs by broth microdilution method
# Assay type: functional
# experimental_context: CKU-17, 24 h
Kindly state MIC for each of the entries shown.
Answers are plain numbers, in µg/mL.

>  <molecule_smiles>
CC(C)=CC[C@H](OC(=O)CC(C)C)C1=CC(=O)c2c(O)ccc(O)c2C1=O

>  <MIC / µg/mL>
3.13

$$$$
>  <molecule_smiles>
CC(C)=CC[C@@H](O)C1=CC(=O)c2c(O)ccc(O)c2C1=O

>  <MIC / µg/mL>
25

$$$$
>  <molecule_smiles>
CC(C)=CC[C@H](O)C1=CC(=O)c2c(O)ccc(O)c2C1=O

>  <MIC / µg/mL>
25

$$$$

Then there is this molecule:
What the record says about CC(C)=CC[C@H](OC(=O)/C=C/c1ccc2c(c1)OCO2)C1=CC(=O)c2c(O)ccc(O)c2C1=O : MIC is 50

* * *

# Tested on: HepG2
# assay_text: Cytotoxicity against human HepG2 cells after 48 hrs by MTT assay
# Type: functional
# experimental_context: HepG2, 48 h, read-out: CD50 (the source's name)
reported_endpoint: CC50 (µg/mL)
Answers are plain numbers, in µg/mL.

Use these answered entries as a reference point.
>  <molecule_smiles>
CC(C)=CC[C@H](OC(=O)CC(C)C)C1=CC(=O)c2c(O)ccc(O)c2C1=O

>  <observed>
2.2

$$$$
>  <molecule_smiles>
CC(C)=CC[C@H](O)C1=CC(=O)c2c(O)ccc(O)c2C1=O

>  <observed>
1

$$$$
>  <molecule_smiles>
CC(C)=CC[C@H](OC(=O)/C=C/c1ccc2c(c1)OCO2)C1=CC(=O)c2c(O)ccc(O)c2C1=O

>  <observed>
2.1

$$$$
>  <molecule_smiles>
CC(C)=CC[C@H](OC(=O)/C=C/c1ccccc1)C1=CC(=O)c2c(O)ccc(O)c2C1=O

>  <observed>
3.8

$$$$
>  <molecule_smiles>
CC(C)=CC[C@H](OC(=O)C=C(C)C)C1=CC(=O)c2c(O)ccc(O)c2C1=O

>  <observed>
2.6

$$$$
>  <molecule_smiles>
CC[C@@H](C)C(=O)O[C@@H](CC=C(C)C)C1=CC(=O)c2c(O)ccc(O)c2C1=O

>  <observed>
5

$$$$

Report CC50 for every entry below.
1. CC[C@H](C)C(=O)O[C@@H](CC=C(C)C)C1=CC(=O)c2c(O)ccc(O)c2C1=O
2. CC(=O)O[C@@H](CC=C(C)C)C1=CC(=O)c2c(O)ccc(O)c2C1=O
3. CC(C)=CC[C@H](OC(=O)C(C)C)C1=CC(=O)c2c(O)ccc(O)c2C1=O

### Response
0.6
2
4

* * *

Kindly state MBC for each of the entries shown.
# Test system: Enterococcus faecalis
# assay_text: Antibacterial activity against vancomycin-resistant Enterococcus faecalis CKU-17 expressing VanB after 48 hrs by broth microdilution method
# Assay type: functional
# experimental_context: CKU-17, 48 h
A bare number is not enough; add the unit after it.

Use these answered entries as a reference point.
>  <molecule>
CC[C@H](C)C(=O)O[C@@H](CC=C(C)C)C1=CC(=O)c2c(O)ccc(O)c2C1=O

>  <MBC>
3.13 µg/mL

$$$$
>  <molecule>
CC(C)=CC[C@H](OC(=O)/C=C/c1ccc2c(c1)OCO2)C1=CC(=O)c2c(O)ccc(O)c2C1=O

>  <MBC>
50 µg/mL

$$$$
>  <molecule>
CC(C)=CC[C@H](OC(=O)C(C)C)C1=CC(=O)c2c(O)ccc(O)c2C1=O [ISOBUTYLALKANNIN]

>  <MBC>
6.25 µg/mL

$$$$
>  <molecule>
CC(C)=CC[C@H](OC(=O)CC(C)C)C1=CC(=O)c2c(O)ccc(O)c2C1=O [ISOVALERYL ALKANNIN]

>  <MBC>
3.13 µg/mL

$$$$

Report MBC for every entry below.
1. CC[C@@H](C)C(=O)O[C@@H](CC=C(C)C)C1=CC(=O)c2c(O)ccc(O)c2C1=O
2. CC(C)=CC[C@@H](O)C1=CC(=O)c2c(O)ccc(O)c2C1=O [SHIKONIN]
3. CC(C)=CC[C@H](O)C1=CC(=O)c2c(O)ccc(O)c2C1=O [ALKANNIN]
4. CC(=O)O[C@@H](CC=C(C)C)C1=CC(=O)c2c(O)ccc(O)c2C1=O [ACETYLALKANNIN]

### Response
1. 6.25 µg/mL
2. 50 µg/mL
3. 50 µg/mL
4. 6.25 µg/mL

* * *

Kindly state MIC for each of the entries shown.
# System: Enterococcus faecalis
# assay_text: Antibacterial activity against vancomycin-resistant Enterococcus faecalis CKU-17 expressing VanB after 24 hrs by broth microdilution method
# Type: functional
# experimental_context: CKU-17, 24 h

>  <molecule_smiles>
CC(C)=CC[C@H](OC(=O)/C=C/c1ccccc1)C1=CC(=O)c2c(O)ccc(O)c2C1=O

>  <MIC>
25 µg/mL

$$$$

What the record says about CN[C@H](CC(C)C)C(=O)N[C@H]1C(=O)N[C@@H](CC(N)=O)C(=O)N[C@H]2C(=O)N[C@H]3C(=O)N[C@H](C(=O)N[C@H](C(=O)O)c4cc(O)cc(O)c4-c4cc3ccc4O)[C@H](O)c3ccc(c(Cl)c3)Oc3cc2cc(c3O[C@@H]2O[C@H](CO)[C@@H](O)[C@H](O)[C@H]2O[C@H]2C[C@](C)(N)[C@H](O)[C@H](C)O2)Oc2ccc(cc2Cl)[C@H]1O : MIC is > 100 µg/mL

* * *

# Test system: Enterococcus faecalis
# assay_text: Antibacterial activity against vancomycin-resistant Enterococcus faecalis CKU-17 expressing VanB after 24 hrs by broth microdilution method
# Format: functional
# experimental_context: CKU-17, 24 h
Kindly state MIC for each of the entries shown.
Answers are plain numbers, in µg/mL.

>  <molecule_smiles>
CC[C@H](C)C(=O)O[C@@H](CC=C(C)C)C1=CC(=O)c2c(O)ccc(O)c2C1=O

>  <readout_unit>
µg/mL

>  <MIC>
1.56

$$$$
>  <molecule_smiles>
CC(=O)O[C@@H](CC=C(C)C)C1=CC(=O)c2c(O)ccc(O)c2C1=O

>  <readout_unit>
µg/mL

>  <MIC>
6.25

$$$$
>  <molecule_smiles>
CC(=O)O[C@H](CC=C(C)C)C1=CC(=O)c2c(O)ccc(O)c2C1=O

>  <readout_unit>
µg/mL

>  <MIC>
6.25

$$$$

Report MIC for every entry below.
1. CC(C)=CC[C@H](OC(=O)C(C)C)C1=CC(=O)c2c(O)ccc(O)c2C1=O
2. CC(C)=CC[C@H](OC(=O)C=C(C)C)C1=CC(=O)c2c(O)ccc(O)c2C1=O
3. CC[C@@H](C)C(=O)O[C@@H](CC=C(C)C)C1=CC(=O)c2c(O)ccc(O)c2C1=O
4. CC1=CC(=O)c2c(O)cccc2C1=O
5. O=C(N[C@H](CO)[C@H](O)c1ccc([N+](=O)[O-])cc1)C(Cl)Cl

### Response
1. 3.13
2. 3.13
3. 3.13
4. 12.5
5. 6.25

* * *

# Test system: Escherichia coli
# assay_text: Antibacterial activity against Escherichia coli up to 100 ug/mL after 24 hrs by broth microdilution method
# Format: functional, organism-based
The source made the active and inactive calls. The calls are words filed in the database; no cut-off is given here.
reported_endpoint: Activity

Use these answered entries as a reference point.
>  <molecule_smiles>
CC[C@H](C)C(=O)O[C@@H](CC=C(C)C)C1=CC(=O)c2c(O)ccc(O)c2C1=O

>  <Activity>
inactive

$$$$
>  <molecule_smiles>
CC(C)=CC[C@H](O)C1=CC(=O)c2c(O)ccc(O)c2C1=O

>  <Activity>
inactive

$$$$
>  <molecule_smiles>
CC(C)=CC[C@@H](O)C1=CC(=O)c2c(O)ccc(O)c2C1=O

>  <Activity>
inactive

$$$$
>  <molecule_smiles>
CC(=O)O[C@H](CC=C(C)C)C1=CC(=O)c2c(O)ccc(O)c2C1=O

>  <Activity>
inactive

$$$$
>  <molecule_smiles>
CC(C)=CC[C@H](OC(=O)C(C)C)C1=CC(=O)c2c(O)ccc(O)c2C1=O

>  <Activity>
inactive

$$$$

Report Activity for every entry below.
1. CC(C)=CC[C@H](OC(=O)/C=C/c1ccc2c(c1)OCO2)C1=CC(=O)c2c(O)ccc(O)c2C1=O
2. CC[C@@H](C)C(=O)O[C@@H](CC=C(C)C)C1=CC(=O)c2c(O)ccc(O)c2C1=O
3. CC(=O)O[C@@H](CC=C(C)C)C1=CC(=O)c2c(O)ccc(O)c2C1=O

### Response
inactive
inactive
inactive

* * *

# Tested on: Enterococcus faecalis
# assay_text: Antibacterial activity against Enterococcus faecalis after 48 hrs by broth microdilution method
# Assay type: functional
Kindly state MBC for each of the entries shown.
Numbers only, in µg/mL.

>  <molecule>
CC(C)=CC[C@H](OC(=O)C=C(C)C)C1=CC(=O)c2c(O)ccc(O)c2C1=O

>  <MBC, µg/mL>
3.13

$$$$

Then there is this molecule:
Form field MBC for item CC(C)=CC[C@@H](O)C1=CC(=O)c2c(O)ccc(O)c2C1=O [SHIKONIN] on Enterococcus faecalis: 50
